- Tested on: P. aeruginosa expressing IMP-1, efflux+ (MB9798)
- Format: cell-based, Pseudomonas aeruginosa
- Condition Summary: ratio MITC95 PA_9798/MITC95 PA_9799
Readout Name: Efflux ratio
Give bare numbers.

INSERT INTO measurements (molecule, readout_name, reported_result) VALUES
  ('NS(=O)(=O)c1c(S(=O)(=O)C2CNC2)ccc(-c2cccc3nccn23)c1-c1nnn[nH]1 [Example 66]', 'Efflux ratio', 8.00),
  ('NCc1cncc(-c2ccc(S(=O)(=O)C3CNC3)c(S(N)(=O)=O)c2-c2nnn[nH]2)c1.O=C(O)C(F)(F)F [Example 107]', 'Efflux ratio', 4.00),
  ('NC[C@H](N)CS(=O)(=O)c1ccc(-c2ccc(N)nc2)c(-c2nn[nH]n2)c1S(N)(=O)=O [Example 372]', 'Efflux ratio', 2.00),
  ('NS(=O)(=O)c1c(Sc2ccncc2)ccc(-c2ccc(C3CCNCC3)cc2)c1-c1nn[nH]n1 [Example 242]', 'Efflux ratio', 31.99),
  ('NC[C@@H](O)CS(=O)(=O)c1ccc(-c2ccc(N)nc2)c(-c2nn[nH]n2)c1S(N)(=O)=O [Example 364]', 'Efflux ratio', 1.00);

Value sought for every listed molecule: Efflux ratio.
1. Cc1ccc(-c2ccc(S(=O)(=O)C3CNC3)c(S(N)(=O)=O)c2-c2nn[nH]n2)c2nc(N)[nH]c12 [Example 15]
2. CS(=O)(=O)N1CCC(S(=O)(=O)c2ccc(-c3cccc4nc(N)[nH]c34)c(-c3nn[nH]n3)c2S(N)(=O)=O)CC1 [Example 45]

Result:
[1.00, 16.00]
